So I've got a bunch of variants here, and I need their protein stability index values.
B1: DLC1 (parent)
chain: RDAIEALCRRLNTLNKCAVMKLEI

Variants of: B1
Experiment: protein stability index of a GFP-peptide fusion (GPS, HEK-293T) (PSI 1-6); higher = more stable;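 further: lentivirally expressed fusions sorted by FACS into six bins by GFP to DsRed ratio, PSI derived from sequencing read proportions per bin multiplied by bin number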
Details: c terminus: a fixed tail appended
Number only, please.

Challenge: Can you look up the measured protein stability index of C8S for me?
Response given: 1.39

Challenge: Also, E23D please.
Response given: 1.52

Challenge: Check D2M too.
Response given: 3.99

Challenge: Request: K21T
Response given: 2.06

Challenge: Request: E23Q
Response given: 4.6

Challenge: What about this variant? L22G
Response given: 1.5

Challenge: Same lookup for E23C , please.
Response given: 2.07

Challenge: Another variant to look at: C17S
Response given: 2.17

Challenge: For K16F then?
Response given: 3.89

Challenge: Proceed to L7F
Response given: 2.12

Challenge: Next up: E23Y
Response given: 1.36

Challenge: Quick one: E23P
Response given: 2.27

Challenge: Similarly, K16I ?
Response given: 1.93

Challenge: Continue with N15D
Response given: 3.27

Challenge: Continue with C8H
Response given: 2.7

Challenge: What do we get for L14M ?
Response given: 1.49

Challenge: Then this variant: K21Y
Response given: 2.5

Challenge: Same for N12Y
Response given: 3.36

Challenge: Also L7T ?
Response given: 2.46

Challenge: Moving on to C8M
Response given: 3.9

Challenge: Same again, this time with N12M
Response given: 1.84

Challenge: Try this variant too: L11N
Response given: 2.33

Challenge: How about this variant: C8Y
Response given: 3.24

Challenge: Next entry: M20T
Response given: 2.35

Challenge: Queued: L11W
Response given: 2.05

Challenge: Can you check R1C next?
Response given: 2.52

Challenge: Can you check R10K next?
Response given: 3.44
